# method: 1-Octanol-PBS buffer distribution coefficient, log D of natEu labelled compound at pH 7.4 by time resolved fluorescence analysis
# Format: physicochemical
assay-metric: logD

Cc1cc(O)cc(C)c1C[C@H](NC(=O)[C@@H]1CCCN1C(=O)[C@H](CCCNC(=N)N)NC(=O)[C@H](CCCNC(=N)N)N(C)C(=O)[C@@H]1CCCN1C(=O)[C@H](CCCCN)NC(=O)[C@@H](CO)NC(=O)[C@@H](CO)NC(=O)[C@@H](CO)NC(=O)[C@H](Cc1cn(CCNC(=O)[C@H](CCCNC(=N)N)NC(=O)[C@H](CC(C)C)NC(=O)CCC(=O)O)nn1)NC(=O)CN1CCN(CC(=O)O)CCN(CC(=O)O)CCN(CC(=O)O)CC1)C(=O)N[C@H](C(=O)N[C@@H](CC(C)C)C(=O)O)C(C)(C)C :: -3.71

Now let's try a different one.
Task item: # return recorded logD for input Cc1cc(O)cc(C)c1C[C@H](NC(=O)[C@@H]1CCCN1C(=O)[C@H](CCCNC(=N)N)NC(=O)[C@H](CCCNC(=N)N)N(C)C(=O)[C@@H]1CCCN1C(=O)[C@H](CCCCN)NC(=O)[C@@H](CO)NC(=O)[C@@H](CO)NC(=O)[C@@H](CO)NC(=O)[C@H](Cc1cn(CCNC(=O)[C@H](CCCNC(=N)N)NC(=O)[C@H](CC(C)C)NC(=O)C2OC2C(=O)O)nn1)NC(=O)CN1CCN(CC(=O)O)CCN(CC(=O)O)CCN(CC(=O)O)CC1)C(=O)N[C@H](C(=O)N[C@@H](CC(C)C)C(=O)O)C(C)(C)C (some centres not stated)
Reply: -3.69

Reference source for all entries: ChEMBL document CHEMBL4350999
